Biological target: BTK (Homo sapiens, UniProt Q06187)
Construct: endogenous in cells; host or cells: TMD-8 cells
Sequence (Q06187 whole entry): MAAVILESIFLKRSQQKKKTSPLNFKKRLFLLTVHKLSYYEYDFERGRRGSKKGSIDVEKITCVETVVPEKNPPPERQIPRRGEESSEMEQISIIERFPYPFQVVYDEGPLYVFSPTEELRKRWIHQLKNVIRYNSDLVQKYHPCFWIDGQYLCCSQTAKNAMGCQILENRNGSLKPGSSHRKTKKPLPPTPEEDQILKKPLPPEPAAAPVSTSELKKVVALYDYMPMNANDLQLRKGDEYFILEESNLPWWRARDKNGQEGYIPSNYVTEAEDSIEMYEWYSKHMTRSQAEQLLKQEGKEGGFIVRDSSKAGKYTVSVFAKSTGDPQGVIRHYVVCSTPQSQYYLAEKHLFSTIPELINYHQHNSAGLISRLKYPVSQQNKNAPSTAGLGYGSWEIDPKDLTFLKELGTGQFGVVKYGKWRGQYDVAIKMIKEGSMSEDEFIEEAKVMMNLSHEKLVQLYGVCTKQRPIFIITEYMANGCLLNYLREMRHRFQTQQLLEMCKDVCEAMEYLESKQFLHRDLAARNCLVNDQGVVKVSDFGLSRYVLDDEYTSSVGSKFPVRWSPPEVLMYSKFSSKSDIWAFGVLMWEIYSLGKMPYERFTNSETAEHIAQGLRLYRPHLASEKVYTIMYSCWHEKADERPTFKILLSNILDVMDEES
Assay: BTK degradation in TMD-8 cells, HTRF assay after 6 h treatment
Type: cell-based
Conditions: IC50 (DC50) of BTK degradation
I'd appreciate it if you marked entries label 1 when DC50 is lower than 10 nM and label 0 when it is not.

>  <molecule>
Cc1cc(-c2n[nH]c3ncc(-c4ccc(N5CCN(Cc6ccc(C7CCC(=O)NC7=O)c(F)c6)CC5)cc4)cc23)ccc1[C@@H](C)NC(=O)c1nc(C(C)(C)C)no1 (some centres unmarked)

>  <class_assignment>
label 0

$$$$
>  <molecule>
Cc1cc(-c2n[nH]c3ncc(-c4ccc(N5CCC(COc6ccc(OC7CCC(=O)NC7=O)cc6)CC5)cc4)cc23)ccc1[C@@H](C)NC(=O)c1noc(C(C)(C)C)n1 (some centres unmarked)

>  <class_assignment>
label 0

$$$$

Item Cc1cc(-c2n[nH]c3ncc(-c4ccc(N5CCN(CCc6ccc(N7CC(=O)NC7=O)cc6)CC5)cc4)cc23)ccc1[C@@H](C)NC(=O)c1nc(C(C)(C)C)no1 : DC50 beneath 10 nM, strictly? label 0

Now give it for Cc1cc(-c2n[nH]c3ncc(-c4ccc(N5CCN(CC6CCN(c7ccc(N8CCC(=O)NC8=O)cc7)CC6)CC5)cc4)cc23)ccc1[C@@H](C)NC(=O)c1noc(C(C)(C)C)n1 too. label 1

Now give it for Cc1cc(-c2n[nH]c3ncc(-c4ccc(N5CCN(CCc6ccc(C7CCC(=O)NC7=O)c(F)c6)CC5)nc4)cc23)ccc1[C@@H](C)NC(=O)c1noc(C(C)(C)C)n1 (some centres unmarked) too. label 1
